target.system: T1, Cbz-Ala-Ala-AAsn-CH═CH-COOEt
T1 chain: AAN
endpoint: kobs/[I] (M⁻¹ s⁻¹)
Answer format: numeric, M⁻¹ s⁻¹ implied, no suffix.

For this protein ( schistosome legumain SmAE (Schistosoma mansoni asparaginyl endopeptidase) (protein) VSDNNKWAVLVAGSNGYPNYRHQADVCHAYHVLRSKGIKPEHIITMMYDDIAYNLMNPFPGKLFNDYNHKDWYEGVVIDYRGKNVNSKTFLKVLKGDKSAGGKVLKSGKNDDVFIYFTDHGAPGLIAFPDDELYAKEFMSTLKYLHSHKRYSKLVIYIEANESGSMFQQILPSNLSIYATTAANSTECSYSTFCGDPTITTCLADLYSYNWIVDSQTHHLTQRTLDQQYKEVKRETDLSHVQRYGDTRMGKLYVSEFQGS ), measured kobs/[I] is 17400
